melting point overview
assayMetric: melting point

molecule | valueReported
CC(=O)C1CCC2C3CCC4=CC(=O)CC[C@]4(C)C3C(=O)C[C@]12C (stereo partly drawn) | 182 to 183 °C
COC(=O)[C@@]1(C)CC[C@]2(C)CC[C@]3(C)C(=CCC4[C@@]5(C)CC[C@H](O)C(C)(C)C5CC[C@]43C)[C@@H]2C1 (stereo partly drawn) [DGS01092 B] | 135 to 137 °C
CCOC(=O)[C@@]1(C)CC[C@]2(C)CC[C@]3(C)C(=CC(=O)C4[C@@]5(C)CC[C@H](O)C(C)(C)C5CC[C@]43C)[C@@H]2C1 (stereo partly drawn) | 93 to 94 °C
CC(O)C1CCC2C3CCC4=C[C@@H](O)CC[C@]4(C)C3[C@H](O)C[C@]12C (stereo in doubt) [STX125, 3,11,20-Trihydroxyproqesterone] | 122 to 125 °C
CC1(C)C2CC[C@]3(C)C(C(=O)C=C4[C@@H]5C[C@@](C)(C(=O)OCC6CCCCC6)CC[C@]5(C)CC[C@]43C)[C@@]2(C)CC[C@@H]1O (stereo partly drawn) | 98 to 99 °C
CC1(C)C2CC[C@]3(C)C(CC=C4[C@@H]5C[C@@](C)(C(=O)OC6CCCCC6)CC[C@]5(C)CC[C@]43C)[C@@]2(C)CC[C@@H]1O (stereo partly drawn) | 163 to 166 °C

----------
# studySystem: 11 β-HSD type 1 (Rattus norvegicus)
# Construct: Both the kidneys and livers were homogenised on ice in PBS- sucrose buffer; tissue Harlan Olac, Bicester, Oxon, UK (rats); host or cells: rat liver homogenate supernatant (Wistar rat)
# experimentSummary: biochemical
# Format: biochemical
# experimentalParameters: read-out: % […]→F ± SD, inhibitor 10 μM; rat liver cytosol 25 μL, 90 min, 37° C.; cortisone (E) to cortisol (F); vs control without inhibitor; means n=2; read-out: % INHIBITION E→F ± SD
Quick rule for you: inhibition at 10 µM at 50% or higher means MET, lower means NOT MET.

molecule | studySystem | discreteLabel
CC(=O)C1CCC2C3CCC4=CC(=O)CC[C@]4(C)C3[C@H](O)C[C@]12C (stereo partly drawn) [DG322B, 11-hydroxy-Progesterone] | 11 β-HSD type 1 (Rattus norvegicus) | NOT MET
CCOC(=O)[C@@]1(C)CC[C@]2(C)CC[C@]3(C)C(=CC(=O)C4[C@@]5(C)CC[C@H](O)C(C)(C)C5CC[C@]43C)[C@@H]2C1 (stereo partly drawn) | 11 β-HSD type 1 (Rattus norvegicus) | MET
CC1(C)C2CC[C@]3(C)C(C(=O)C=C4[C@@H]5C[C@@](C)(C(=O)OCC6CCCCC6)CC[C@]5(C)CC[C@]43C)[C@@]2(C)CC[C@@H]1O (stereo partly drawn) | 11 β-HSD type 1 (Rattus norvegicus) | MET
COC(=O)[C@@]1(C)CC[C@]2(C)CC[C@]3(C)C(=CCC4[C@@]5(C)CC[C@H](O)C(C)(C)C5CC[C@]43C)[C@@H]2C1 (stereo partly drawn) | 11 β-HSD type 1 (Rattus norvegicus) | NOT MET
CC(=O)C1CCC2C3CCC4=CC(=O)CC[C@]4(C)C3[C@H](OCc3ccccc3)C[C@]12C (stereo partly drawn) | 11 β-HSD type 1 (Rattus norvegicus) | NOT MET

----------
# studySystem: 11 β-HSD type 2 (Rattus norvegicus, UniProt P50233)
# Construct: Both the kidneys and livers were homogenised on ice in PBS- sucrose buffer; tissue Harlan Olac, Bicester, Oxon, UK (rats); host or cells: rat kidney homogenate supernatant (Wistar rat)
# Sequence (P50233 whole entry): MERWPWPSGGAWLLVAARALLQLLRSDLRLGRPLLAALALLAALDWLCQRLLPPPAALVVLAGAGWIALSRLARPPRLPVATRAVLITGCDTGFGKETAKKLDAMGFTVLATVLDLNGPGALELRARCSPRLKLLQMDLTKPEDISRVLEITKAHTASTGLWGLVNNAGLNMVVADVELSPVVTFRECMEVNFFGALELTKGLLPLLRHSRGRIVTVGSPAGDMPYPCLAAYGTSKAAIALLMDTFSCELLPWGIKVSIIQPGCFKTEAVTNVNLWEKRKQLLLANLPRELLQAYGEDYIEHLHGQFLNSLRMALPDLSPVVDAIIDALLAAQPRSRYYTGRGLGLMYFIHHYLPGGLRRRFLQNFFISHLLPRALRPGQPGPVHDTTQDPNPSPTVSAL
# experimentSummary: biochemical
# experimentalParameters: read-out: % […]→E ± SD, inhibitor 10 μM; rat kidney cytosol 150 μL, 60 min, 37° C.; cortisol (F) to cortisone (E); vs control without inhibitor; means n=2; read-out: % INHIBITION F→E ± SD
Quick rule for you: inhibition at 10 µM at 60% or higher means 1, lower means 0.

compound | discreteLabel
COC(=O)[C@@]1(C)CC[C@]2(C)CC[C@]3(C)C(=CCC4[C@@]5(C)CC[C@H](O)C(C)(C)C5CC[C@]43C)[C@@H]2C1 (some centres unmarked) | 0
CC(C)(C)OC(=O)[C@@]1(C)CC[C@]2(C)CC[C@]3(C)C(=CC(=O)C4[C@@]5(C)CC[C@H](O)C(C)(C)C5CC[C@]43C)[C@@H]2C1 (some centres unmarked) | 0
CC1(C)C2CC[C@]3(C)[C@H](C(=O)C=C4[C@@H]5C[C@@](C)(C(=O)NCCN6CCOCC6)CC[C@]5(C)CC[C@]43C)[C@@]2(C)CC[C@@H]1O (some centres unmarked) | 1
CC1(C)C2CC[C@]3(C)[C@H](C(=O)C=C4[C@@H]5C[C@@](C)(C(=O)NC6CC6)CC[C@]5(C)CC[C@]43C)[C@@]2(C)CC[C@@H]1O (stereo partly drawn) [STX 370, 18β-Glycyrrhetinic Acid Cyclopropylamide] | 1

----------
# studySystem: 11 β-HSD type 1 (Rattus norvegicus, UniProt P16232)
# Construct: Both the kidneys and livers were homogenised on ice in PBS- sucrose buffer; tissue Harlan Olac, Bicester, Oxon, UK (rats); host or cells: rat liver homogenate supernatant (Wistar rat)
# Sequence (P16232 whole entry): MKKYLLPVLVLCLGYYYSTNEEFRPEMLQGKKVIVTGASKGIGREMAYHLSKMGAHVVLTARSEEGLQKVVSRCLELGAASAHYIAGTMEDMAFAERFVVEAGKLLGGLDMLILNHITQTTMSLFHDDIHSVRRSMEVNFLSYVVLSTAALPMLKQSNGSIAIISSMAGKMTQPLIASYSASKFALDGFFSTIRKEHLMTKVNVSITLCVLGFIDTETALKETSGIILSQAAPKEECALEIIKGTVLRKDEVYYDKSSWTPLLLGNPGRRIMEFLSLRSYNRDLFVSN
# experimentSummary: biochemical
# Type: biochemical
# experimentalParameters: read-out: % […]→F ± SD, inhibitor 10 μM; rat liver cytosol 25 μL, 90 min, 37° C.; cortisone (E) to cortisol (F); vs control without inhibitor; means n=2; read-out: % INHIBITION E→F ± SD
inhibition at 10 µM overview
assayMetric: inhibition at 10 µM (%)

compound | assayMetric | valueReported
CC1(C)C2CC[C@]3(C)[C@H](C(=O)C=C4[C@@H]5C[C@@](C)(C(=O)NCc6ccccn6)CC[C@]5(C)CC[C@]43C)[C@@]2(C)CC[C@@H]1O (stereo partly drawn) | inhibition at 10 µM | 57.1
CC(=O)O[C@H]1CC[C@@]2(C)C(CC[C@]3(C)C2CC=C2[C@@H]4C[C@@](C)(C(=O)OCc5ccccc5)CC[C@]4(C)CC[C@]23C)C1(C)C (stereo partly drawn) | inhibition at 10 µM | -1.18
CC1(C)C2CC[C@]3(C)C(CC=C4[C@@H]5C[C@@](C)(CO)CC[C@]5(C)CC[C@]43C)[C@@]2(C)CC[C@@H]1O (stereo partly drawn) | inhibition at 10 µM | 13.4
COC(=O)[C@@]1(C)CC[C@]2(C)CC[C@]3(C)C(=CC(=O)[C@@H]4[C@@]5(C)CC[C@H](OCc6ccccc6)C(C)(C)C5CC[C@]43C)[C@@H]2C1 (stereo partly drawn) | inhibition at 10 µM | 17.8
CC1(C)C2CC[C@]3(C)C([C@H](O)C=C4[C@@H]5C[C@@](C)(CO)CC[C@]5(C)CC[C@]43C)[C@@]2(C)CC[C@@H]1O (stereo partly drawn) | inhibition at 10 µM | 70
CC(=O)C1CCC2C3CCC4=CC(=O)CC[C@]4(C)C3C(=O)C[C@]12C (stereo partly drawn) | inhibition at 10 µM | 100

----------
# studySystem: 11 β-HSD type 1 (Rattus norvegicus, UniProt P16232)
# Construct: Both the kidneys and livers were homogenised on ice in PBS- sucrose buffer; tissue Harlan Olac, Bicester, Oxon, UK (rats); host or cells: rat liver homogenate supernatant (Wistar rat)
# experimentSummary: biochemical
# Type: biochemical
# experimentalParameters: read-out: % […]→F ± SD, inhibitor 10 μM; rat liver cytosol 25 μL, 90 min, 37° C.; cortisone (E) to cortisol (F); vs control without inhibitor; means n=2; read-out: % INHIBITION E→F ± SD
Structures can show the parent of a compound that is named as a salt.

compound | inhibition at 10 µM, %
CC1(C)C2CC[C@]3(C)[C@H](C(=O)C=C4[C@@H]5C[C@@](C)(C(=O)NCCN6CCOCC6)CC[C@]5(C)CC[C@]43C)[C@@]2(C)CC[C@@H]1O (stereo partly drawn) [STX 372] | 19.4
CC1(C)C2CC[C@]3(C)C(C(=O)C=C4[C@@H]5C[C@@](C)(CO)CC[C@]5(C)CC[C@]43C)[C@@]2(C)CC[C@@H]1O (stereo partly drawn) [STX 349] | 89.7
CC(=O)C1CCC2C3CCC4=CC(=O)CC[C@]4(C)C3CC[C@]12C (stereo partly drawn) [Progesterone, reference compound] | 73
CC1(C)C(=O)CC[C@]2(C)C3C(=O)C=C4[C@H]5C[C@@](C)(C(=O)O)CC[C@]5(C)CC[C@@]4(C)[C@]3(C)CC[C@@H]12 (stereo partly drawn) [BLE99005, 3,11-Dioxo-18α-olean-12-en-30-oic acid] | 87
CC1(C)C2CC[C@]3(C)[C@H](C(=O)C=C4[C@@H]5C[C@@](C)(C(=O)NCc6ccccc6)CC[C@]5(C)CC[C@]43C)[C@@]2(C)CC[C@@H]1O (stereo partly drawn) [STX 366, 18β-Glycyrrhetinic Acid Benzylamide] | 85.2
CO[C@@H]1C[C@]2(C)C(C(C)=O)CCC2C2CCC3=CC(=O)CC[C@]3(C)C21 (stereo partly drawn) [STX193, 11α-Methoxyprogesterone] | 48.1
CC1(C(=O)O)CCC2(C)CCC3C(=CC(=O)C4C3(C)CCC3C(C)(C)C(OC(=O)CCC(=O)O)CCC34C)C2C1 (stereo not drawn) [Carbenoxalone, Carbenoxalone (disodium salt), reference compound] | 52.2
CC(O)C1CCC2C3CCC4=C[C@@H](O)CC[C@]4(C)C3[C@H](OCc3ccccc3)C[C@]12C (stereo in doubt) [STX-126, 11α-benzyloxy-3,20-dihydroxyprogesterone] | 33.8
CCOC(=O)[C@H](C)NC(=O)[C@@]1(C)CC[C@]2(C)CC[C@]3(C)C(=CC(=O)[C@@H]4[C@@]5(C)CC[C@H](O)C(C)(C)C5CC[C@]43C)[C@@H]2C1 (stereo partly drawn) [STX 369] | 24.9
CC(O)C1CCC2C3CCC4=C[C@@H](O)CC[C@]4(C)C3[C@H](O)C[C@]12C (stereo in doubt) [STX125, 3,11,20-Trihydroxyproqesterone] | 85.1
CC(C)(C)OC(=O)[C@@]1(C)CC[C@]2(C)CC[C@]3(C)C(=CC(=O)C4[C@@]5(C)CC[C@H](O)C(C)(C)C5CC[C@]43C)[C@@H]2C1 (stereo partly drawn) [STX 298] | 50.6
CO[C@H]1CC[C@@]2(C)C(CC[C@]3(C)C2C(=O)C=C2[C@@H]4C[C@@](C)(C(=O)O)CC[C@]4(C)CC[C@]23C)C1(C)C (stereo partly drawn) [STX195a] | 53
CC1(C)C2CC[C@]3(C)[C@H](C(=O)C=C4[C@@H]5C[C@@](C)(C(=O)NC6CC6)CC[C@]5(C)CC[C@]43C)[C@@]2(C)CC[C@@H]1O (stereo partly drawn) [STX 370, 18β-Glycyrrhetinic Acid Cyclopropylamide] | 89.6
CCO[C@H]1CC[C@@]2(C)C(CC[C@]3(C)C2C(=O)C=C2[C@@H]4C[C@@](C)(C(=O)O)CC[C@]4(C)CC[C@]23C)C1(C)C (stereo partly drawn) [STX196a, 3β-Ethoxy-11-oxo-18β-glycerrhetinic acid] | 55
CCOC(=O)[C@@]1(C)CC[C@]2(C)CC[C@]3(C)C(=CC(=O)C4[C@@]5(C)CC[C@H](OCc6ccccc6)C(C)(C)C5CC[C@]43C)[C@@H]2C1 (stereo partly drawn) [STX 297] | 34.3
CC1(C)C2CC[C@]3(C)C(C(=O)C=C4[C@@H]5C[C@@](C)(C(=O)OCc6ccccc6)CC[C@]5(C)CC[C@]43C)[C@@]2(C)CC[C@@H]1O (stereo partly drawn) [STX 348] | 63.4
COC(=O)[C@@]1(C)CC[C@]2(C)CC[C@]3(C)C(=CC(=O)C4[C@@]5(C)CC[C@H](O)C(C)(C)C5CC[C@]43C)[C@@H]2C1 (stereo partly drawn) [STX195] | 85.4
COC(=O)[C@@]1(C)CC[C@]2(C)CC[C@]3(C)C(=CC(=O)[C@@H]4[C@@]5(C)CC[C@H](OCc6ccc(C(C)(C)C)cc6)C(C)(C)C5CC[C@]43C)[C@@H]2C1 (stereo partly drawn) [STX 360] | 14.7
CC1(C)C(=O)CC[C@@]2(C)C1CC[C@]1(C)C2C(=O)C=C2[C@@H]3C[C@@](C)(C(=O)O)CC[C@]3(C)CC[C@]21C (stereo partly drawn) [STX 347, 3-Oxo-18β-glycerrhetinic acid] | 89.4
CC(=O)O[C@H]1CC[C@@]2(C)C(CC[C@]3(C)[C@@H]2C(=O)C=C2[C@@H]4C[C@@](C)(C(=O)NCc5ccccc5)CC[C@]4(C)CC[C@]23C)C1(C)C (stereo partly drawn) [STX 367] | 36.2
CC1(C)C2CC[C@]3(C)C(CC=C4[C@@H]5C[C@@](C)(C(=O)O)CC[C@]5(C)CC[C@]43C)[C@@]2(C)CC[C@@H]1O (stereo partly drawn) [STX122, 11-Deoxo-18β-glycerrhetinic acid] | 92.7

Numbers sourced from patent US20040147494A1.
